Molecular target: T1, PBP3 of E. coli (E. coli, UniProt P0AD68 57-577, limits assumed)
T1 construct: also called E. coli PBP3; FtsI
T1 sequence (looked up): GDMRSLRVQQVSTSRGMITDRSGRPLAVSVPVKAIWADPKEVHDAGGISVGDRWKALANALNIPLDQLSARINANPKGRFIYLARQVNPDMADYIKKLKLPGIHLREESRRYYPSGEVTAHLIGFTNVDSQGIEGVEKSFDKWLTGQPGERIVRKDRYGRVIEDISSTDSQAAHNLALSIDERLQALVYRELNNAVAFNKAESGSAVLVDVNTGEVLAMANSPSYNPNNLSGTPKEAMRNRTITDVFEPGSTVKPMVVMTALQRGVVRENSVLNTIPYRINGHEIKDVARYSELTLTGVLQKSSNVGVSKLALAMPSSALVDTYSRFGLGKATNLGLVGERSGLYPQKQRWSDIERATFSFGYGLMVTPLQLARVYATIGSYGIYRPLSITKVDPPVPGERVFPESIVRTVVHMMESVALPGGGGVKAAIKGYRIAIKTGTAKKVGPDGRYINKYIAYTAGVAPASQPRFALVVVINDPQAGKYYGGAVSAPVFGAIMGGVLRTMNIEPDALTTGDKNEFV
Assay: fluorescence polarisation direct binding; fluorescein-labelled peptide, PBP titrated
readout_label: pKd
Formally, pKd is defined as -log10 of the concentration c, with c in mol/L.

pKd measured on ACSFPKCPWVEGCA (Ci, Cii and Ciii cyclised with TATA scaffold; fluorescein appended to the C-terminus with a Sar6-Lysine linker, Bicyclic peptide) [BCY12130 with fluorescein appended to the C-terminus with a Sar6-Lysine linker] = 5.70
